Assay: Kinetic aqueous solubility of the compound in PBS at pH 1.2 after 2 hrs by LC-Ms analysis
Assay type: physicochemical
Details: read-out: Kinetic_solubility
OUTCOME_MEASURE: solubility kinetic at 2 h (µM)
Numbers only, in µM.

Give the value of solubility kinetic at 2 h reported for the following: "Cc1ccc(NC(=O)c2cc(-c3cc4cc(C(=O)O)ccc4o3)ccc2N2CCCCC2)cc1"
7

---

Molecular target: Lipoprotein lipase (Bos taurus) (UniProt P11151)
Sequence (whole entry): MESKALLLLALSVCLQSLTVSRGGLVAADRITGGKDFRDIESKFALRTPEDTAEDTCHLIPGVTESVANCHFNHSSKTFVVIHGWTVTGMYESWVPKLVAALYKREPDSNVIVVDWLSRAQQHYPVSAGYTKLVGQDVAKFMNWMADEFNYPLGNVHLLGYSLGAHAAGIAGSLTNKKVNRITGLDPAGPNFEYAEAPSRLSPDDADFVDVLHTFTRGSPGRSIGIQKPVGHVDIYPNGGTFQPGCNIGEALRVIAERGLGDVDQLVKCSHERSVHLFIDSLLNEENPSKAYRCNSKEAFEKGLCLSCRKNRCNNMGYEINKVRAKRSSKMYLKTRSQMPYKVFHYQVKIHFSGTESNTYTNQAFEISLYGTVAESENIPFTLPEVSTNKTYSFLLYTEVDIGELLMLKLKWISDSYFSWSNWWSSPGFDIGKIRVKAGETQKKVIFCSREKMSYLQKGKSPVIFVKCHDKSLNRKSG
Test: Induction of bovine LPL stabilization using intralipid as substrate at 12.5 uM preincubated for 10 mins with human recombinant ANGPTL4 followed by substrate addition measured after 45 mins relative to control
The source made the active and inactive calls. The rule behind the calls is not given here.
OUTCOME_MEASURE: Activity

Cc1ccc(NC(=O)c2cc(N)ccc2N2CCCCC2)cc1: inactive
Cc1ccc(NC(=O)c2cc(N3C(=O)c4ccc(C(=O)O)cc4C3=O)ccc2N2CCCCC2)cc1C(F)(F)F: 42.2%
O=C(O)c1ccc2c(c1)C(=O)N(c1ccc(NCc3cccnc3)c(C(=O)NCc3cccnc3)c1)C2=O: inactive
COc1ccc(NC(=O)c2cc(N3C(=O)c4ccc(C(=O)O)cc4C3=O)ccc2N2CCCCC2)cc1: inactive
Cc1ccc(NC(=O)c2cc(N3C(=O)c4ccc(C(=O)O)cc4C3=O)ccc2N2CCCCC2)cc1: 90%

I would be grateful if you could provide Activity for each of the following entries.
1. Cc1ccc(NC(=O)c2cc(Nc3ccccc3)cc(N3C(=O)c4ccc(C(=O)O)cc4C3=O)c2)cc1
2. CCCCCCCCCCNc1ccc(N2C(=O)c3ccc(C(=O)O)cc3C2=O)cc1C(=O)Nc1ccc(C)cc1
3. CC(C)c1ccc(NC(=O)c2cc(N3C(=O)c4ccc(C(=O)O)cc4C3=O)ccc2Nc2ccccc2)cc1
4. O=C(O)c1ccc2c(c1)C(=O)N(c1ccc(Nc3ccccc3)c(C(=O)Nc3ccccc3-c3ccccc3)c1)C2=O

1. 73.1%
2. 10%
3. 59.1%
4. 61.5%

Give one value of Activity per listed compound.
1. O=C1c2ccccc2C(=O)N1c1ccccc1
2. CCCCCCNc1ccc(N2C(=O)c3ccc(C(=O)O)cc3C2=O)cc1C(=O)Nc1ccc(C)cc1
3. COC(=O)c1ccc2c(c1)C(=O)N(c1ccc(N3CCCCC3)c(C(=O)Nc3ccc(C)cc3)c1)C2=O
4. Cc1ccc(NC(=O)c2cc(N3C(=O)c4ccc(C(=O)O)cc4C3=O)ccc2N2CCOCC2)cc1

1. inactive
2. 47.1%
3. inactive
4. inactive
